assay-details: Hydrodynamic diameter and colloidal stability of aggregates by dynamic light scattering
Type: physicochemical
condition-summary: 1.25 μM in PBS from DMSO stock, 37 °C
measurement-kind: zeta potential (mV)
Number in mV, nothing else.

Given COc1ccc2[nH]cc(CCNC(=O)CNC(=O)CCC(=O)O[C@@H]3CC(C)=C(/C=C/C(C)=C/C=C/C(C)=C/C=C/C=C(C)/C=C/C=C(C)/C=C/C4=C(C)CCCC4(C)C)C(C)(C)C3)c2c1 [Compound 15, Cryptoxanthin-melatonin conjugate] , respond with its zeta potential. −20.8

Specify measured zeta potential for COc1ccc2[nH]cc(CCNC(=O)CNC(=O)CCC(=O)O[C@@H]3CC(C)=C(/C=C/C(C)=C/C=C/C(C)=C/C=C/C=C(C)/C=C/C=C(C)/C=C/C4C(C)=C[C@@H](OC(=O)CCC(=O)NCC(=O)NCCc5c[nH]c6ccc(OC)cc56)CC4(C)C)C(C)(C)C3)c2c1 (stereo partly shown) [Compound 16, Lutein-bismelatonin conjugate] . −12.5

Give the measured zeta potential for COc1ccc2[nH]cc(CCNC(=O)CNC(=O)CCC(=O)O[C@@H]3CC(C)=C(/C=C/C(C)=C/C=C/C(C)=C/C=C/C=C(C)/C=C/C=C(C)/C=C/C(=O)[C@]4(C)C[C@@H](OC(=O)CCC(=O)NCC(=O)NCCc5c[nH]c6ccc(OC)cc56)CC4(C)C)C(C)(C)C3)c2c1 [Compound 17, Capsanthin-dimelatonin conjugate] −21.1

Consider the compound CC1=C(/C=C/C(C)=C/C=C/C(C)=C/C=C/C=C(C)/C=C/C=C(C)/C=C/C(=O)[C@]2(C)C[C@@H](OC(=O)CCC(=O)O)CC2(C)C)C(C)(C)C[C@H](OC(=O)CCC(=O)O)C1 [Compound 9, Capsanthin bissuccinate] and give its recorded zeta potential. 31.0
